# experimental_target: T1, TNFR1 (Homo sapiens, UniProt P19438)
# T1 chain: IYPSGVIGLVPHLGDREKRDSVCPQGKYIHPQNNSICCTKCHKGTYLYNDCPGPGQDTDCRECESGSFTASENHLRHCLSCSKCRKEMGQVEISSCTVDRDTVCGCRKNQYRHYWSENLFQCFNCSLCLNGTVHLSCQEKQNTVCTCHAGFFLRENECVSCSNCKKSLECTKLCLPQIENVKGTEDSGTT
# assay_summary: yeast display SC50

binder	apparent Kd (screen) / nM
R89T (designed binder) MTLQELLREEALRRAEAEAFRYALELLAEKFPEQKEYLLDLAEEIESQIRSLSGVDVEDVRKFLDKEWAWVKELLAEHPAELAEVEAATAARLAELRAEVEAKVAA	0.446
E44H (designed binder) MTLQELLREEALRRAEAEAFRYALELLAEKFPEQKEYLLDLAEHIESQIRSLSGVDVEDVRKFLDKEWAWVKELLAEHPAELAEVEAARAARLAELRAEVEAKVAA	2.05
V100T (designed binder) MTLQELLREEALRRAEAEAFRYALELLAEKFPEQKEYLLDLAEEIESQIRSLSGVDVEDVRKFLDKEWAWVKELLAEHPAELAEVEAARAARLAELRAETEAKVAA	0.49
F31H (designed binder) MTLQELLREEALRRAEAEAFRYALELLAEKHPEQKEYLLDLAEEIESQIRSLSGVDVEDVRKFLDKEWAWVKELLAEHPAELAEVEAARAARLAELRAEVEAKVAA	1.4
